- method-description: Pharmacokinetics of caspofungin during continuous venovenous hemodiafiltration (CVVHD)
- Format: in vivo, human
- test-context: human, in vivo, iv, patient 1; 6 h after infusion ended; steady state, CVVHD; HPLC; read-out: Arterial caspofungin concentration
parameter: level at 6 h

What level at 6 h value was documented for this compound, `CC[C@H](C)C[C@H](C)CCCCCCCCC(=O)N[C@H]1C[C@@H](O)[C@@H](NCCN)NC(=O)[C@@H]2[C@@H](O)CCN2C(=O)[C@H]([C@H](O)CCN)NC(=O)[C@H]([C@H](O)[C@@H](O)c2ccc(O)cc2)NC(=O)[C@@H]2C[C@@H](O)CN2C(=O)[C@H]([C@@H](C)O)NC1=O` ? 5630 ng/mL

----------
- method-description: Pharmacokinetics of caspofungin during continuous venovenous hemodiafiltration (CVVHD)
- Type: in vivo, human
- test-context: human, in vivo, iv, patient 3; 8 h after infusion ended; steady state, CVVHD; HPLC; read-out: Arterial caspofungin concentration
parameter: level at 8 h
Don't forget the unit after the number, please.

What level at 8 h value was documented for this compound, CC[C@H](C)C[C@H](C)CCCCCCCCC(=O)N[C@H]1C[C@@H](O)[C@@H](NCCN)NC(=O)[C@@H]2[C@@H](O)CCN2C(=O)[C@H]([C@H](O)CCN)NC(=O)[C@H]([C@H](O)[C@@H](O)c2ccc(O)cc2)NC(=O)[C@@H]2C[C@@H](O)CN2C(=O)[C@H]([C@@H](C)O)NC1=O [caspofungin] ? 5220 ng/mL

----------
- method-description: Pharmacokinetics of caspofungin during continuous venovenous hemodiafiltration (CVVHD)
- Type: in vivo, human
- test-context: human, in vivo, iv, patient 12; 24 h after infusion ended; steady state, CVVHD; HPLC; read-out: Arterial caspofungin concentration
parameter: level at 24 h (ng/mL)
Give bare numbers, in ng/mL.

What level at 24 h value was documented for this molecule, `CC[C@H](C)C[C@H](C)CCCCCCCCC(=O)N[C@H]1C[C@@H](O)[C@@H](NCCN)NC(=O)[C@@H]2[C@@H](O)CCN2C(=O)[C@H]([C@H](O)CCN)NC(=O)[C@H]([C@H](O)[C@@H](O)c2ccc(O)cc2)NC(=O)[C@@H]2C[C@@H](O)CN2C(=O)[C@H]([C@@H](C)O)NC1=O` ? 1850

----------
- method-description: Pharmacokinetics of caspofungin during continuous venovenous hemodiafiltration (CVVHD)
- Format: in vivo, human
- test-context: human, in vivo, iv, patient 1; 2 h after infusion ended; steady state, CVVHD; HPLC; read-out: Arterial caspofungin concentration
parameter: level at 2 h (ng/mL)
Give bare numbers, in ng/mL.

What level at 2 h value was documented for this compound, `CC[C@H](C)C[C@H](C)CCCCCCCCC(=O)N[C@H]1C[C@@H](O)[C@@H](NCCN)NC(=O)[C@@H]2[C@@H](O)CCN2C(=O)[C@H]([C@H](O)CCN)NC(=O)[C@H]([C@H](O)[C@@H](O)c2ccc(O)cc2)NC(=O)[C@@H]2C[C@@H](O)CN2C(=O)[C@H]([C@@H](C)O)NC1=O` ? 7510

----------
- method-description: Pharmacokinetics of caspofungin during continuous venovenous hemodiafiltration (CVVHD)
- Type: in vivo, human
- test-context: human, in vivo, iv, patient 10; 24 h after infusion ended; steady state, CVVHD; HPLC; read-out: Arterial caspofungin concentration
parameter: level at 24 h (ng/mL)
One number for each entry, in ng/mL.

What level at 24 h value was documented for this molecule, CC[C@H](C)C[C@H](C)CCCCCCCCC(=O)N[C@H]1C[C@@H](O)[C@@H](NCCN)NC(=O)[C@@H]2[C@@H](O)CCN2C(=O)[C@H]([C@H](O)CCN)NC(=O)[C@H]([C@H](O)[C@@H](O)c2ccc(O)cc2)NC(=O)[C@@H]2C[C@@H](O)CN2C(=O)[C@H]([C@@H](C)O)NC1=O [caspofungin] ? 2880

FYI, the data here is from paper PMC5278571.
